molecular target: T1, monovalent human TrkA extracellular region (human, UniProt P04629 33-423); experiment: SPR (BIAcore 2000), antibody captured via Fc, monovalent TrkA extracellular region as analyte
T1 construct: also called recombinant monovalent human TrkA extracellular domain
T1 sequence (P04629 33-423): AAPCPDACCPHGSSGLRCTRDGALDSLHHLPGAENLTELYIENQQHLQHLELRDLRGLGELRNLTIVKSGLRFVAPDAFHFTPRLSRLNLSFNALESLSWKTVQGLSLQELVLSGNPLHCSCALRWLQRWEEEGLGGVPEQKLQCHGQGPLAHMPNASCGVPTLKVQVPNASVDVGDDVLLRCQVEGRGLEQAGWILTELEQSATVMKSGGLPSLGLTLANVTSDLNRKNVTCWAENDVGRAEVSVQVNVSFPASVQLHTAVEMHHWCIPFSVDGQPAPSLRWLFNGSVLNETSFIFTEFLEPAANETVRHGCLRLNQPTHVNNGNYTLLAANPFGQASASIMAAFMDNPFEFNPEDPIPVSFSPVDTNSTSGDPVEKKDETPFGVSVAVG
Recorded kon for the following binders

{"BINDER": "GBR VH1(V37A)VL1 (antibody, human IgG1, kappa, V domains shown, IGHG1, kappa) VH: EVQLLESGGGLVQPGGSLRLSCAASGFTFSTYTMSWARQAPGKGLEWVSYISKGGGSTYYPDTVKGRFTISRDNSKNTLYLQMNSLRAEDTAVYYCAKGAMYGNDFFYPMDYWGQGTTVTVSS VL: EIVLTQSPATLSLSPGERATLSCSASSSVSYMHWYQQKPGQAPRLLIYTTSNLASGIPARFSGSGSGTDFTLTISSLEPEDFAVYYCHQWSSYPWTFGQGTKLEIKR", "kon [M⁻¹ s⁻¹]": 19600}
{"BINDER": "GBR VH5(V37A)VL3 (antibody, human IgG1, kappa, V domains shown, IGHG1, kappa) VH: EVKLLESGGGLVQPGGSLRLSCAASGFTFSTYTMSWARQTPGKRLEWVAYISKGGGSTYYPDTVKGRFTISRDNSKNTLYLQMNSLRAEDTAVYYCARGAMYGNDFFYPMDYWGQGTTVTVSS VL: QIVLTQSPATLSLSPGERATLSCSASSSVSYMHWYQQKPGQSPRLLIYTTSNLASGIPSRFSGSGSGTFYTLTISSLEPEDFAVYYCHQWSSYPWTFGGGTKLEIKR", "kon [M⁻¹ s⁻¹]": 74500}
{"BINDER": "BXhVH3VL3 (antibody, human IgG1, kappa, V domains shown, IGHG1, kappa) VH: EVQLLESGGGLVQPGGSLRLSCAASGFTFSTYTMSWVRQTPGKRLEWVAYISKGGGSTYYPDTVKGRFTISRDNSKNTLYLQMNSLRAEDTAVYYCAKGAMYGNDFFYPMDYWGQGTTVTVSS VL: QIVLTQSPATLSLSPGERATLSCSASSSVSYMHWYQQKPGQSPRLLIYTTSNLASGIPSRFSGSGSGTFYTLTISSLEPEDFAVYYCHQWSSYPWTFGGGTKLEIKR", "kon [M⁻¹ s⁻¹]": 31400}
{"BINDER": "BXhVH5VL3 (antibody, human IgG1, kappa, V domains shown) VH: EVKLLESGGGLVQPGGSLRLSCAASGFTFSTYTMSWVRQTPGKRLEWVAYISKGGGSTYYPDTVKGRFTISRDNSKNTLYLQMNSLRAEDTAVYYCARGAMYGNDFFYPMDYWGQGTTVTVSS VL: QIVLTQSPATLSLSPGERATLSCSASSSVSYMHWYQQKPGQSPRLLIYTTSNLASGIPSRFSGSGSGTFYTLTISSLEPEDFAVYYCHQWSSYPWTFGGGTKLEIKR", "kon [M⁻¹ s⁻¹]": 62300}
